test: Human HepG2 cell viability assay in 384 well format; assay type: toxicity, cell-based; design: dose 125 nL, time 70.5 hour; concentration not given beside the values; settings: HepG2 cells, read-out: Inhibition
Measure Name: cytotoxicity at 70.5 h (%)
Give the number; % is assumed, so skip it.

INSERT INTO results (molecule, measure_name, reported_value) VALUES
  ('CN1C(=O)[C@H]2CC[C@@H]1CN(C(=O)c1sccc1S(N)(=O)=O)C2', 'cytotoxicity at 70.5 h', -4.92);

Request: Which value of cytotoxicity at 70.5 h has been reported for "Cc1nc(C)c(C(=O)Nc2cccc(CN3CCC(CO)CC3)c2)o1" in the records?
Result: 0.852

Request: Which value of cytotoxicity at 70.5 h has been reported for "CS(=O)(=O)c1ccc(NC(=O)CSc2ccc3c(c2)CCC3)cn1" in the records?
Result: -14.4

Request: Which value of cytotoxicity at 70.5 h has been reported for COC(C)c1cccc(NCc2cccs2)c1 (stereo unspecified) in the records?
Result: -3.58

Request: Which value of cytotoxicity at 70.5 h has been reported for "CS(=O)(=O)N1CCC2(CC1)c1ccccc1[C@@H](N1CCSCC1)[C@@H]2O" in the records?
Result: -0.762

Request: Which value of cytotoxicity at 70.5 h has been reported for "CC[C@@H]1N(Cc2nccs2)CCC[C@]12CCC(=O)N2C" in the records?
Result: 9.06
